- Tested on: pooled human cryopreserved hepatocytes (pHHeps)
- Assay Procedure: Metabolic stability, pooled human cryopreserved hepatocyte incubations
- Protocol Conditions: pHHeps, 15 min
Quick reference for % parent compound remaining, Average among some compounds
Property Label: % parent compound remaining, Average (%)

* COC(=O)[C@H](NC(=O)c1nn(CCCCF)c2ccccc12)C(C)(C)C [(R)-4F-MDMB-BINACA (4)] | 82.6
* COC(=O)[C@@H](NC(=O)c1nn(Cc2ccc(F)cc2)c2ccccc12)C(C)(C)C [(S)-MDMB-FUBINACA (6)] | 73.3
* COC(=O)C(NC(=O)c1cn(CC2CCCCC2)c2ccccc12)C(C)C (stereo in doubt) [(R)-AMB-CHMICA (9)] | 26.7
* COC(=O)[C@@H](NC(=O)c1nn(CCCCCF)c2ccccc12)C(C)C [(S)-5F-AMB-PINACA (10)] | 3.0
